Tested on: HCI-001 (organoid from a triple-negative breast cancer xenograft)
Measurement notes: CTG-3D luminescence at 96 h relative to day-0 seeding control (ratio to day 0); higher = more growth / less cytotoxicity; PDxO 3D drug screen, 96 h, CTG-3D normalised to day-0 seeding control.
Experimental parameters: 1 µM; days in culture: 364
Each entry gets Criterion not met if its CTG-3D luminescence at 96 h stays under 0.5, and Criterion met if its CTG-3D luminescence at 96 h is 0.5 or above.

                           smiles_structure      tgt           category
0  C/C=C1\NC(=O)[C@H]2CSSCC/C=C/[C@H](CC(=O)N[C@H](C(C)C)C(=O)N2)OC(=O)[C@H](C(C)C)NC1=O  HCI-001  Criterion not met
1  Nc1ccn([C@@H]2O[C@H](CO)[C@@H](O)C2(F)F)c(=O)n1  HCI-001  Criterion not met
2  O=C(c1ccc(F)c(F)c1Nc1ccc(I)cc1F)N1CC(O)([C@@H]2CCCCN2)C1  HCI-001      Criterion met
3  CC(C)n1nc(-c2ccc3oc(N)nc3c2)c2c(N)ncnc21  HCI-001  Criterion not met
4  CCN1CCN(Cc2ccc(Nc3ncc(F)c(-c4cc(F)c5nc(C)n(C(C)C)c5c4)n3)nc2)CC1  HCI-001      Criterion met
5  Cc1nc(-c2cn3c(n2)-c2ccc(-c4cnn(C(C)(C)C(N)=O)c4)cc2OCC3)n(C(C)C)n1  HCI-001      Criterion met
6  CCc1c2c(nc3ccc(O)cc13)-c1cc3c(c(=O)n1C2)COC(=O)[C@]3(O)CC  HCI-001  Criterion not met
7  NC(=O)Nc1cc(-c2cccc(F)c2)sc1C(=O)N[C@H]1CCCNC1  HCI-001  Criterion not met
